tested on: Helicobacter pylori; assay: Antibacterial activity against metronidazole-sensitive Helicobacter pylori at 16 ug/disk after 3 to 5 days by filter paper disk diffusion method; format: functional; conditions: read-out: IZ

# Smiles data, zone of inhibition at 16 µg/disc [mm]
rows = [
    ("O=[N+]([O-])c1ccc(-c2nnc(N3CC[S+]([O-])CC3)s2)s1", 39),
    ("O=[N+]([O-])c1ccc(-c2nnc(N3CCS(=O)(=O)CC3)s2)s1", 6),
    ("O=[N+]([O-])c1ccc(-c2nnc(N3CCOCC3)s2)o1", 36),
    ("O=[N+]([O-])c1ccc(-c2nnc(N3CCCCC3)s2)s1", 6),
    ("O=[N+]([O-])c1ccc(-c2nnc(N3CCCCC3)s2)o1", 32),
    ("Cn1c([N+](=O)[O-])cnc1-c1nnc(N2CCOCC2)s1", 31),
    ("Cn1c([N+](=O)[O-])cnc1-c1nnc(N2CCCCC2)s1", 6),
    ("O=[N+]([O-])c1ccc(-c2nnc(N3CC[S+]([O-])CC3)s2)o1", 41),
    ("Cn1c([N+](=O)[O-])cnc1-c1nnc(N2CC[S+]([O-])CC2)s1", 19),
    ("O=[N+]([O-])c1ccc(-c2nnc(N3CCSCC3)s2)s1", 18),
    ("Cn1c([N+](=O)[O-])cnc1-c1nnc(N2CCS(=O)(=O)CC2)s1", 40),
    ("O=[N+]([O-])c1ccc(-c2nnc(N3CCSCC3)s2)o1", 35),
    ("Cn1c([N+](=O)[O-])cnc1-c1nnc(N2CCSCC2)s1", 31),
    ("O=[N+]([O-])c1ccc(-c2nnc(N3CCOCC3)s2)s1", 6),
    ("O=[N+]([O-])c1ccc(-c2nnc(N3CCS(=O)(=O)CC3)s2)o1", 50),
]

###

tested on: Helicobacter pylori; experiment: Antibacterial activity against metronidazole-sensitive Helicobacter pylori at 32 ug/disk after 3 to 5 days by filter paper disk diffusion method; type: functional; conditions: read-out: IZ
Parameter: zone of inhibition at 32 µg/disc. Scope: all listed entries.
Observable: zone of inhibition at 32 µg/disc (mm)

# Smiles data, Observed measurement
records = [
    ("O=[N+]([O-])c1ccc(-c2nnc(N3CCSCC3)s2)o1", 41),
    ("O=[N+]([O-])c1ccc(-c2nnc(N3CCCCC3)s2)o1", 35),
    ("O=[N+]([O-])c1ccc(-c2nnc(N3CC[S+]([O-])CC3)s2)s1", 46),
    ("Cn1c([N+](=O)[O-])cnc1-c1nnc(N2CC[S+]([O-])CC2)s1", 25),
    ("O=[N+]([O-])c1ccc(-c2nnc(N3CCSCC3)s2)s1", 22),
    ("Cn1c([N+](=O)[O-])cnc1-c1nnc(N2CCSCC2)s1", 34),
    ("Cn1c([N+](=O)[O-])cnc1-c1nnc(N2CCOCC2)s1", 32),
    ("O=[N+]([O-])c1ccc(-c2nnc(N3CCOCC3)s2)o1", 42),
    ("Cn1c([N+](=O)[O-])cnc1-c1nnc(N2CCCCC2)s1", 6),
    ("O=[N+]([O-])c1ccc(-c2nnc(N3CCS(=O)(=O)CC3)s2)s1", 16),
    ("O=[N+]([O-])c1ccc(-c2nnc(N3CCCCC3)s2)s1", 6),
]

###

tested on: Helicobacter pylori; experiment: Antibacterial activity against metronidazole-resistant Helicobacter pylori at 32 ug/disk after 3 to 5 days by filter paper disk diffusion method; format: functional; settings: read-out: IZ
Observable: zone of inhibition at 32 µg/disc (mm)

# Smiles data, Target or system, Observed measurement
measured = [
    ("O=[N+]([O-])c1ccc(-c2nnc(N3CCOCC3)s2)o1", "Helicobacter pylori", 48),
    ("O=[N+]([O-])c1ccc(-c2nnc(N3CC[S+]([O-])CC3)s2)o1", "Helicobacter pylori", 43),
    ("O=[N+]([O-])c1ccc(-c2nnc(N3CC[S+]([O-])CC3)s2)s1", "Helicobacter pylori", 41),
    ("Cn1c([N+](=O)[O-])cnc1-c1nnc(N2CCOCC2)s1", "Helicobacter pylori", 33),
]
